B1: EHEE_rd4_0086 (parent)
chain: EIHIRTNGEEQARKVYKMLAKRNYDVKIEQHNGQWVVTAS

Variants of: B1
ASSAY_DETAILS: folding stability dG (cDNA display proteolysis); higher = more stable
CONDITION_PARAMETERS: PBS, room temperature
folding stability dG overview
A complete answer gives the number followed by the unit.

Examples from the recorded data:
sequence_change=I2H result="0.983 kcal/mol"
sequence_change=Q34D result="1.51 kcal/mol"
sequence_change=R5F result="2.36 kcal/mol"

folding stability dG recorded for this variant, N7D , is 1.82 kcal/mol

folding stability dG recorded for this variant, G33F , is 0.875 kcal/mol

folding stability dG recorded for this variant, H3F , is 2.2 kcal/mol

folding stability dG recorded for this variant, Y24S , is 0.914 kcal/mol

folding stability dG recorded for this variant, E1V , is 2.47 kcal/mol
